# Percent Effect per entry
molecular target: Sialic acid-binding Ig-like lectin 9 (Homo sapiens); assay: Hs-Siglec9 ALPHAscreen SOP 20170721; parameters: scale not given: direction of the effect not stated beside the values; conditions: 10 µM
// units = %; emit number, no label

# annotated cases, reported Percent Effect shown
Cc1nc(C)n(C2CCCN(C(=O)c3csc(C(C)C)n3)C2)n1 (centres undefined); 12.2
O=C(C1=CCCC1)N1CCO[C@H]2[C@@H](OCC3CC3)CC[C@@H]21; -6.26
COCC(=O)N1CCC2(CC1)COCCN2CCN(C)C; 4.73
O=S1(=O)CCCN1Cc1coc(-c2cccs2)n1; 1.81
CCc1noc(C)c1C(=O)N1CCCC1c1c(C)nn(C)c1OC (centres undefined); 2.98

IN: Reported Percent Effect for CCc1noc(C(C)N2CCN(Cc3noc(C)n3)CC2)n1 (centres undefined) : what is it?
OUT: -7.24

IN: Reported Percent Effect for Cc1cccc(COC[C@H]2CC[C@H]3[C@H](CCN3C(=O)CC3CC3)O2)n1 : what is it?
OUT: -1.34

IN: Reported Percent Effect for COCCOc1ccc(NC(=O)N(C)Cc2ccsc2)cn1 : what is it?
OUT: -8.23

IN: Reported Percent Effect for O=S(=O)(C1CC1)N1CCC2(COCc3cnc(N4CCOCC4)nc32)C1 (centres undefined) : what is it?
OUT: -4.21
